Overview of recorded composite z-score for various molecules
biological target: Streptavidin (Streptomyces avidinii); experiment: compounds binding control protein streptavidin – biophysical, small-molecule microarray, 635/667 nm fluorescence, artefact control for SMM compound annotation, primary screen (AID 1147); settings: higher = more signal;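 also: signal reflects streptavidin binding to arrayed compounds as a control protein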

Chemical Structure: COC(=O)[C@@]1(Cc2ccccc2)[C@H]2c3cc(C(=O)N(C)C)n(Cc4cc(F)c(F)c(F)c4)c3C[C@H]2CN1C(=O)c1ccccc1
composite z-score: 0.773

Chemical Structure: O=C(NCC(F)(F)F)[C@@H]1c2ccccc2C(=O)N(Cc2ccccc2)[C@H]1c1ccc(CO)cc1
composite z-score: -0.27

Chemical Structure: NC(=O)NCC#Cc1ccc2c(c1)[C@]1(C(=O)N2)[C@H](C(=O)NC[C@H](O)c2ccccc2)[C@H]2C(=O)O[C@H](c3ccccc3)[C@H](c3ccccc3)N2[C@@H]1c1ccccc1OCCO
composite z-score: -0.0692
